Origin of values: ChEMBL document CHEMBL2440045

Test system: HeLa
Test: Antiproliferative activity against human HeLa cells assessed as cell viability after 72 hrs by MTT assay
Assay type: functional, cell-based
experimental.readout: IC50 (µM)

Consider the reported IC50 for these molecules:
[
  {
    "molecule": "CO[C@H]1N(C(=O)OC(C)(C)C)c2ccccc2[C@@]12CN=C(SC)S2 (racemic)",
    "system.tested": "HeLa",
    "unit.annotation": "µM",
    "val": 74.3
  },
  {
    "molecule": "CO[C@@H]1N(C(=O)OC(C)(C)C)c2ccccc2[C@@]12CN=C(N1CCOCC1)S2 (racemic)",
    "system.tested": "HeLa",
    "unit.annotation": "µM",
    "val": 76
  },
  {
    "molecule": "CO[C@H]1N(C(=O)OC(C)(C)C)c2ccccc2[C@@]12CN=C(Nc1ccc(Cl)cc1)S2 (racemic)",
    "system.tested": "HeLa",
    "unit.annotation": "µM",
    "val": 20.8
  },
  {
    "molecule": "CO[C@@H]1N(C(=O)OC(C)(C)C)c2ccccc2[C@@]12CN=C(SC)S2 (racemic)",
    "system.tested": "HeLa",
    "unit.annotation": "µM",
    "val": 77.6
  },
  {
    "molecule": "c1ccc(NC2=NCc3c([nH]c4ccccc34)S2)cc1",
    "system.tested": "HeLa",
    "unit.annotation": "µM",
    "val": 27
  }
]

(1) Clc1ccc(NC2=NCc3c([nH]c4ccccc34)S2)cc1
(2) CC(C)(C)OC(=O)n1cc(CNC(=S)Nc2ccc(Cl)cc2)c2ccccc21
Challenge: Smaller IC50 value, 1 vs 2 ? Record your answer as the label of the chosen record.
Response given: 2
